Each record here notes measured Tmax.
Assay Comment: Pharmacokinetic evaluation in mice, oral administration
Type: in vivo, Balb/c mice
Condition Set: mouse, in vivo, po, p.o. 5 mg/kg, plasma, not marked single PK (cassette PK)
Protocol: Balb/c mice were used as test animals to study the pharmacokinetic behavior of the compound of the present invention in mice (plasma) at a dose of 5 mg/kg administered orally and 1 mg/kg administered intravenously. Balb/c mice, 3 per group, male. […] 10 ml of PEG400, 10 ml of PG, and 80 ml of (100 mM glycine, 64 Mm NaOH, pH = 9) were measured into a 100 ml volumetric flask, vortexed, mixed homogeneously, and sonicated to obtain a clear solution. […]

Compound	Tmax / h
Cc1cc(-n2nc3c(c2-n2ccn(-c4ccc(CC(=O)N(C)C)cc4F)c2=O)[C@H](C)N(C(=O)c2cc4cc([C@H]5CCOC(C)(C)C5)ccc4n2[C@@]2(c4noc(=O)[nH]4)C[C@@H]2C)CC3)cc(C)c1F [Example 7]	0.5
C[C@H]1c2c(nn(-c3ccc(F)c(C4CC4)c3)c2-n2ccn(-c3ccc4c(c3)C3(CC3)C(=O)N4C)c2=O)CCN1C(=O)c1cc2cc([C@H]3CCOC(C)(C)C3)ccc2n1[C@@]1(c2noc(=O)[nH]2)C[C@@H]1C [Example 32]	1
[2H]C([2H])(OC1CC1)[C@H]1C[C@]1(c1noc(=O)[nH]1)n1c(C(=O)N2CCc3nn(-c4cc(C)c(F)c(C)c4)c(-n4ccn(-c5ccc6c(cnn6C6CC6)c5F)c4=O)c3[C@@H]2C)cc2cc([C@H]3CCOC(C)(C)C3)ccc21 [Example 194]	2.7
Cc1cc(-n2nc3c(c2-n2ccn(-c4ccc5c(cnn5C5CC5)c4F)c2=O)[C@H](C)N(C(=O)c2cc4cc([C@H]5CCOC(C)(C)C5)ccc4n2[C@@]2(c4noc(=O)[nH]4)C[C@@H]2C)CC3)cc(C)c1F [Example 25]	2

====

Assay Comment: Pharmacokinetic evaluation in mice, oral administration
Assay type: in vivo, Balb/c mice
Condition Set: male, Balb/c, mouse, in vivo, po, p.o. 5 mg/kg, plasma, single PK

Compound	AUC(0-t) [ng·h/mL]
C#C[C@H]1C[C@]1(c1noc(=O)[nH]1)n1c(C(=O)N2CCc3nn(-c4cc(C)c(F)c(C)c4)c(-n4ccn(-c5ccc6c(cnn6C6CC6)c5F)c4=O)c3[C@@H]2C)cc2cc([C@H]3CCOC(C)(C)C3)ccc21 [Example 143]	12200

====

Assay Comment: Pharmacokinetic evaluation in Macaca fascicularis monkeys, oral administration
Assay type: in vivo
Condition Set: cynomolgus monkey, p.o. 5 mg/kg, plasma
Quantity: AUC(0-inf) (ng·h/mL)

Smiles Structure	Quantity	Value
[2H]C([2H])([2H])n1nc2c3c(c(-n4ccn(-c5c6c(nn5-c5cc(C)c(F)c(C)c5)CCN(C(=O)c5cc7cc([C@H]8CCOC(C)(C)C8)ccc7n5[C@@]5(c7noc(=O)[nH]7)C[C@@H]5C)[C@H]6C)c4=O)ccc31)OCCC2	AUC(0-inf)	17000
Cc1cc(-n2nc3c(c2-n2ccn(-c4ccc5c(cnn5C5CC5)c4F)c2=O)[C@H](C)N(C(=O)c2cc4cc([C@H]5CCOC(C)(C)C5)ccc4n2[C@@]2(c4noc(=O)[nH]4)[C@@H]4COC[C@@H]42)CC3)cc(C)c1F	AUC(0-inf)	30800
